# Assay Target: recombinant homotrimeric HA A/Japan/305/57 H2N2 (Influenza A virus A/Japan/305/1957(H2N2))
# Assay Explanation: protein microarray, purified IgG, trimeric HA
# Condition Description: remark: other sources report otherwise
Attribute Measured: Trimeric HA Binding: RLU
Quick note: number first, unit second.

Let me know recorded Trimeric HA Binding: RLU for TCN-555 (5246_L16) (antibody, V domains shown) VH: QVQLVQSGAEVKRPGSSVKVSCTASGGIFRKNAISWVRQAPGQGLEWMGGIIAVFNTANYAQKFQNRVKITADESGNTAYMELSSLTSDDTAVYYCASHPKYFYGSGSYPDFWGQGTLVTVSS VL: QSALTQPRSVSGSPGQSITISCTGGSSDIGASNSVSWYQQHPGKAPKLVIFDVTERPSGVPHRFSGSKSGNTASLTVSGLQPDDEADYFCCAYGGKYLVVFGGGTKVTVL , thanks.
10700 RLU

Read the next record carefully.
Let me know recorded Trimeric HA Binding: RLU for TCN-543 (5081_G23) (antibody, V domains shown) VH: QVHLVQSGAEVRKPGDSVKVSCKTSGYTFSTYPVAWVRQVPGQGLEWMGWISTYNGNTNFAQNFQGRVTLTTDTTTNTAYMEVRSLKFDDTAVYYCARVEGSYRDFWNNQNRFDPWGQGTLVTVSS VL: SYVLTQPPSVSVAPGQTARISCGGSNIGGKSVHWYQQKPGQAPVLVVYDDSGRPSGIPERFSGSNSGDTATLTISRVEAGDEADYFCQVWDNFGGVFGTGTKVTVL , thanks.
14000 RLU

These data points were gathered from patent US20150086555A1.
